test system: Two-Spotted Spider Mite (Tetranvchus urticae); experiment: Test against two-spotted spider mite, spray on kidney bean; format: in vivo; conditions: active compound concentration 100 ppm; adult mites; after 7 days
readout_type: acaricidal activity (%)
Dear colleague, please return just the value in %, with no unit written.

Input line: Using the record for N#Cc1cc(C2=NCC(c3cc(Cl)cc(Cl)c3)(C(F)(F)F)C2)ccc1-n1cncn1 (stereo not shown) [Compound No. 1-39] , report its acaricidal activity.
Output line: 98

Input line: Using the record for CCC(=O)NCc1ccc(C2=NCC(c3cc(Cl)c(Cl)c(Cl)c3)(C(F)(F)F)C2)cc1Cl (stereo not shown) [2-157] , report its acaricidal activity.
Output line: 100

Input line: Using the record for CC(=O)NCc1ccc(C2=NCC(c3cc(Cl)cc(Cl)c3)(C(F)(F)F)C2)cc1C(F)(F)F (stereo not shown) [2-160] , report its acaricidal activity.
Output line: 100

Input line: Using the record for O=C(NCc1ccc(C2=NCC(c3cc(Cl)c(Cl)c(C(F)(F)F)c3)(C(F)(F)F)C2)cc1Br)C1CC1 (stereo not shown) [2-172] , report its acaricidal activity.
Output line: 100

* * *

system: Tobacco Cutworm (Spodoptera litura) Larvae; experiment: Test against tobacco cutworm (Spodoptera litura) larvae, leaf dip; type: in vivo; details: active compound concentration 100 ppm; third-instar larvae; after 7 days
Can you tell me insecticidal activity for the items I'm about to list?

Input line: Quick check: insecticidal activity on Tobacco Cutworm (Spodoptera litura) Larvae, item O=C(CC(F)(F)F)NCc1ccc(C2=NCC(c3cc(Cl)c(Cl)c(C(F)(F)F)c3)(C(F)(F)F)C2)cc1Br (stereo not shown) ?
Output line: 100%

Input line: Quick check: insecticidal activity on Tobacco Cutworm (Spodoptera litura) Larvae, item O=C(CC(F)(F)F)NCc1ccc(C2=NCC(c3cc(C(F)(F)F)cc(C(F)(F)F)c3)(C(F)(F)F)C2)cc1C(F)(F)F (stereo not shown) ?
Output line: 100%

Input line: Quick check: insecticidal activity on Tobacco Cutworm (Spodoptera litura) Larvae, item O=C(NCc1ccc(C2=NCC(c3cc(Cl)c(Cl)c(C(F)(F)F)c3)(C(F)(F)F)C2)cc1Br)C1CC1 (stereo not shown) ?
Output line: 100%

Input line: Quick check: insecticidal activity on Tobacco Cutworm (Spodoptera litura) Larvae, item O=C(NCc1ccc(C2=NCC(c3cc(Cl)c(Cl)c(Cl)c3)(C(F)(F)F)C2)cc1Br)C1CC1 (stereo not shown) ?
Output line: 100%

Input line: Quick check: insecticidal activity on Tobacco Cutworm (Spodoptera litura) Larvae, item CC(=O)NCc1ccc(C2=NCC(c3cc(Cl)c(Cl)c(Cl)c3)(C(F)(F)F)C2)cc1C(F)(F)F (stereo not shown) ?
Output line: 100%

Input line: Quick check: insecticidal activity on Tobacco Cutworm (Spodoptera litura) Larvae, item N#Cc1cc(C2=NCC(c3cc(Cl)cc(Cl)c3)(C(F)(F)F)C2)ccc1-n1cncn1 (stereo not shown) ?
Output line: 100%

Input line: Quick check: insecticidal activity on Tobacco Cutworm (Spodoptera litura) Larvae, item N#Cc1cc(C2=NCC(c3cc(Br)cc(Br)c3)(C(F)(F)F)C2)ccc1-n1cncn1 (stereo not shown) ?
Output line: 100%

Input line: Quick check: insecticidal activity on Tobacco Cutworm (Spodoptera litura) Larvae, item O=C(CC(F)(F)F)NCc1ccc(C2=NCC(c3cc(Cl)c(Cl)c(Cl)c3)(C(F)(F)F)C2)cc1Cl (stereo not shown) ?
Output line: 100%

Input line: Quick check: insecticidal activity on Tobacco Cutworm (Spodoptera litura) Larvae, item O=C(NCc1ccc(C2=NCC(c3cc(Cl)cc(Cl)c3)(C(F)(F)F)C2)cc1Br)C1CC1 (stereo not shown) ?
Output line: 100%

Input line: Quick check: insecticidal activity on Tobacco Cutworm (Spodoptera litura) Larvae, item CCC(=O)NCc1ccc(C2=NCC(c3cc(C(F)(F)F)cc(C(F)(F)F)c3)(C(F)(F)F)C2)cc1C(F)(F)F (stereo not shown) ?
Output line: 100%

Input line: Quick check: insecticidal activity on Tobacco Cutworm (Spodoptera litura) Larvae, item CCC(=O)NCc1ccc(C2=NCC(c3cc(Cl)cc(Cl)c3)(C(F)(F)F)C2)cc1Br (stereo not shown) ?
Output line: 100%

Input line: Quick check: insecticidal activity on Tobacco Cutworm (Spodoptera litura) Larvae, item CCC(=O)NCc1ccc(C2=NCC(c3cc(Cl)c(Cl)c(Cl)c3)(C(F)(F)F)C2)cc1Cl (stereo not shown) ?
Output line: 100%

Input line: Quick check: insecticidal activity on Tobacco Cutworm (Spodoptera litura) Larvae, item N#Cc1cc(C2=NCC(c3cc(Cl)c(Cl)c(Cl)c3)(C(F)(F)F)C2)ccc1-n1cncn1 (stereo not shown) ?
Output line: 100%
